These measurements were taken from the supplement of paper PMC10065799.

- Assayed target: c-Src SH2;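 note: peptide library displayed on the E. coli surface as eCPX fusions, selected cells deep-sequenced, score is each peptide's frequency after selection divided by its frequency in the input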
- Experiment summary: SH2 binding enrichment of the phosphorylated peptide, bacterial display (enrichment ratio); higher = better substrate or ligand; peptides without Tyr show the background
Property measured: SH2 binding enrichment

Study these solved cases before continuing.
SFCFRYRCAPR [SUMF1_Y344_A348P_YF]; 0.486
EFNLMYDGAKE [IRF6_Y97_T100A]; 0.626
VHNLNYFKKTT [FGFR3_Y647_D646N_YF]; 0.377
DPFHVYIKNRV [KCNE3_Y95_YF]; 0.604
MCITRYERESQ [PRNP_Y218_Q217R]; 0.705

1 = FENGEYIVRQG [PRKG1_Y247_I249V_YF]
2 = GGDAVYTNGTI [RFX2_Y82_A86T]
Prompt line: Pick the one with the larger SH2 binding enrichment: 1 vs 2 Pick one; state its label.
Response line: 1
